Overview of recorded pEC50 for various binders
Biological target: T1, Rhesus SLC34A2 (Rhesus, UniProt F7HDA3 1-690)
T1 construct: whole, on cells
T1 sequence: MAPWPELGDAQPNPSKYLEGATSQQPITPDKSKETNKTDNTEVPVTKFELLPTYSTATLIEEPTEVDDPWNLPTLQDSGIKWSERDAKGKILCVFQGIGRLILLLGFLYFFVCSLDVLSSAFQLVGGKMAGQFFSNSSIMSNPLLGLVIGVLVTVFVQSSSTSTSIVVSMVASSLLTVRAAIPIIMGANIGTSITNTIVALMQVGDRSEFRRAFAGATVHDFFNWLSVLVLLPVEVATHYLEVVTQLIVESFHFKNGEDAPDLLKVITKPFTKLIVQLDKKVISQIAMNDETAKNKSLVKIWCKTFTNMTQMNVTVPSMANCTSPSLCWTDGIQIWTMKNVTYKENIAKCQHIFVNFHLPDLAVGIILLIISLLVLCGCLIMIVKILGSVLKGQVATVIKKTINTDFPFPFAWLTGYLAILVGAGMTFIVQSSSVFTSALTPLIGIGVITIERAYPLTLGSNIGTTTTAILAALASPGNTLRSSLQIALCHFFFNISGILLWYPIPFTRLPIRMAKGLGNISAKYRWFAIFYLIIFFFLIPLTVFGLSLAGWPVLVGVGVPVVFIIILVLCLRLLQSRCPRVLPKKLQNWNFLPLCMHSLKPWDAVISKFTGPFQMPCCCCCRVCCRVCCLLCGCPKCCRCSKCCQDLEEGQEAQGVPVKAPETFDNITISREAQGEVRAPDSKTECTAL
Test: FACS, HEK293/Rhesus SLC34A2 cells
Value format note: pEC50 is -log10 of concentration (mol/L); just state the number.

INSERT INTO assay_data (binder, experimental_result) VALUES
  ('91C9F1.p1 hIgG1 (antibody, V domains shown, PTM-derisked chimeric, hIgG1; also called 91C9F1.pl hIgG1) VH: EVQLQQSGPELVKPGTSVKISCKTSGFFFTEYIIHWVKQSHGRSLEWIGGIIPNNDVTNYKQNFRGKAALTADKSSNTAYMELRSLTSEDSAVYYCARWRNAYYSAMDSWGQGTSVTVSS VL: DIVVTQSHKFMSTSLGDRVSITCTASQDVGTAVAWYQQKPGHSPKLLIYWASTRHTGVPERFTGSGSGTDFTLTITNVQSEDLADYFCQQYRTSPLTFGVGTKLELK', 8.55);

Okay, now this binder:
Please look up its pEC50: xi55E5B6D12 hIgG1 (antibody, V domains shown, chimeric, hIgG1) VH: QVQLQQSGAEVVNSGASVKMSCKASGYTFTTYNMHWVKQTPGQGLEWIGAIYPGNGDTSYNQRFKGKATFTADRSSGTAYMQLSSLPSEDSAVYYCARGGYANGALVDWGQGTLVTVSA VL: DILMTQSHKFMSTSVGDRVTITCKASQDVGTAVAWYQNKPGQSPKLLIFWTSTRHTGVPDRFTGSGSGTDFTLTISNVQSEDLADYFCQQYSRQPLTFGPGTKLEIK 8.31
